Give measured IC50 for each item. Keep answers brief.
TEST SYSTEM: UniProtKB P05979
Give bare numbers, in µM.

Examples with their reported IC50 follow.
- COMPOUND: "NC(=O)N(O)Cc1ccc(C#Cc2cccs2)cc1 [Example 16d]"
  UNIT: "µM"
  IC50: 500
- COMPOUND: "CC(c1ccc(C#Cc2ccsc2)cc1)N(O)C(N)=O (stereo not shown) [Example 16b]"
  UNIT: "µM"
  IC50: 500

Hello, I would appreciate it if you could give IC50 for each entry below.
1. NC(=O)N(O)Cc1ccc(C#Cc2ccsc2)cc1 [Example 16f]
2. CC(c1cccc(C#Cc2ccc(Cl)cc2)c1)N(O)C(N)=O (stereo not shown) [Example 10d]

(A)
500
500

Hello, I would appreciate it if you could give IC50 for each entry below.
1. COc1ccc(C#Cc2cccc(C(C)N(O)C(C)=O)c2)cc1 (stereo not shown) [Example 5a]
2. COc1ccc(C#Cc2cccc(C(C)N(O)C(N)=O)c2)cc1 (stereo not shown) [Example 9]

(A)
1: 440; 2: 100

====

Give measured IC50 for each item. Keep answers brief.
Target sequence: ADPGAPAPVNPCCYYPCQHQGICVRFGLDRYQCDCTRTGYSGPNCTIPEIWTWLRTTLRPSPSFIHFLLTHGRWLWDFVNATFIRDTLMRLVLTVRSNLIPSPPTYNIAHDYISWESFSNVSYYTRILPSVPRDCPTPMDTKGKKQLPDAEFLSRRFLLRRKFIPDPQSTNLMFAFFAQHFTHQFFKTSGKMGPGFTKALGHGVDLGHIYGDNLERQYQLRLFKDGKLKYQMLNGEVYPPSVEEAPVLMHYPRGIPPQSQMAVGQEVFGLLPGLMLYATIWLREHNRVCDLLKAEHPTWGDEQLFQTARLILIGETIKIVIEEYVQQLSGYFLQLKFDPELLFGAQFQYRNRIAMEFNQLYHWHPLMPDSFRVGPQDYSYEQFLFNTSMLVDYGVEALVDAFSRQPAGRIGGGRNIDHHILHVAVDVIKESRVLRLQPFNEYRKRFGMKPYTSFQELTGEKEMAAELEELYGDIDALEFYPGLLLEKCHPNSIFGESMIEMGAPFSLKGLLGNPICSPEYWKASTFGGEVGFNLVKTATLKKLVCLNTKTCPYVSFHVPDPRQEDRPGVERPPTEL

Examples with their reported IC50 follow.
- COMPOUND: "CC(=O)N(O)Cc1cccc(C#Cc2ccc3ccccc3c2)c1"
  IC50: "> 500 µM"
- COMPOUND: "COc1ccc(C#Cc2cccc(C(C)N(O)C(N)=O)c2)cc1OC (centres unmarked) [Example 10b]"
  IC50: "> 500 µM"
- COMPOUND: "COc1ccc(C#Cc2cccc(C(C)N(O)C(C)=O)c2)cc1OC (centres unmarked)"
  IC50: "> 500 µM"

Hello, I would appreciate it if you could give IC50 for each entry below.
1. COc1ccccc1C#Cc1cccc(C(C)N(O)C(N)=O)c1 (centres unmarked) [Example 10g]
2. NC(=O)N(O)Cc1cccc(C#Cc2ccc(Cl)cc2)c1 [Example 10m]

(A)
1. 270 µM
2. > 500 µM

====

TEST SYSTEM: 5-lipoxygenase (Rattus norvegicus)
Construct: endogenous in cells
Sequence (P12527 whole entry): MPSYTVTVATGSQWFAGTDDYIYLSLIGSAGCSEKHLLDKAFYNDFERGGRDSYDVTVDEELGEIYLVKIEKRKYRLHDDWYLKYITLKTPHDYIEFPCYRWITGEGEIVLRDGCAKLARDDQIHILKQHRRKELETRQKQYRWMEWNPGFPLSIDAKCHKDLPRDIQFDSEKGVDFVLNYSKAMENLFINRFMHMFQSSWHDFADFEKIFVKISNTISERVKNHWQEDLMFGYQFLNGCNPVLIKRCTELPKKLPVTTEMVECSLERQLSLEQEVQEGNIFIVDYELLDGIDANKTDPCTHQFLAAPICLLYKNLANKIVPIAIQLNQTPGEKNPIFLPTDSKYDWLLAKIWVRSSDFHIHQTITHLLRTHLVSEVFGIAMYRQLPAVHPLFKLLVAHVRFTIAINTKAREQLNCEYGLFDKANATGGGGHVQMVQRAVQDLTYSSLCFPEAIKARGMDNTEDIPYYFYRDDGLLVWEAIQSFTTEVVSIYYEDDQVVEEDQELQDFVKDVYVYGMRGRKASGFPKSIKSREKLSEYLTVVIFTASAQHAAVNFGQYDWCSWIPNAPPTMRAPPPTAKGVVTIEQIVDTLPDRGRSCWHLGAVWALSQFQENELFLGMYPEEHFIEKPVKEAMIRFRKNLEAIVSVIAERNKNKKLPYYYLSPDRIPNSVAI
TEST: Inhibition of 5-lipoxygenase in rat basophilic leukemia cells ([14C]-arachidonic acid, TLC)
EXPERIMENTAL CONDITIONS: rat basophilic leukemia cells; standardized to nordihydroguaiaretic acid
OBSERVED PROPERTY: IC50 (nM)
One number for each entry, in nM.

- MOLECULE: "CC(=O)N(O)Cc1cccc(C#Cc2ccc3ccccc3c2)c1"
  IC50 [nM]: 670
- MOLECULE: "NC(=O)N(O)Cc1ccc(C#Cc2cccs2)cc1 [Example 16d]"
  IC50 [nM]: 370
- MOLECULE: "COc1cccc(C#Cc2cccc(C(C)N(O)C(N)=O)c2)c1 (centres unmarked) [Example 10c]"
  IC50 [nM]: 270
- MOLECULE: "CC(c1ccc(C#Cc2ccsc2)cc1)N(O)C(N)=O (centres unmarked) [Example 16b]"
  IC50 [nM]: 290

Next:
(Q) Endpoint output: IC50 of COc1ccc(C#Cc2cccc(C(C)N(O)C(C)=O)c2)cc1 (centres unmarked) . Value?
(A) 290
